- PROTOCOL DETAILS: Measurement of ε365 and ε365/ε313 of compound β (molar absorption coefficients in acetonitrile)
- Assay type: physicochemical
- Design: key: molar absorption coefficient at 365 nm in (cm·mol/L)^−1
- PARTICULARS: compound β alone
- Description: (Measurement and Evaluation of ε365 and ε365/ε313) A molar absorption coefficient ((cm·mol/L)^−1, “ε365”) of the compound β at 365 nm and a molar absorption coefficient ((cm·mol/L)^−1, “ε313”) of the compound β at 313 nm were obtained, and a value (ε365/ε313) obtained by divided ε365 by ε313 was obtained. The ε365 and ε313 of the compound β are molar absorption coefficients measured by dissolving the compound β in acetonitrile. […]
ENDPOINT LABEL: ε365 of Compound β

Cc1cc(C)c2c(C)cc(C)nc2c1: <10

// recorded ε365 of Compound β for c1ccc2ncccc2c1 : <10

// recorded ε365 of Compound β for Cc1nccc2ccccc12 : <10

// recorded ε365 of Compound β for CCCCc1nccc2ccccc12 : <10

// recorded ε365 of Compound β for Cc1c2ccccc2nc2ccccc12 : 6300

// recorded ε365 of Compound β for CCCCc1ncc(C)c2ccccc12 : <10

====

ε365 of Compound β for assorted compounds
- PROTOCOL DETAILS: Measurement of ε365 and ε365/ε313 of compound β (molar absorption coefficients in acetonitrile)
- Assay type: physicochemical
- Design: key: molar absorption coefficient at 365 nm in (cm·mol/L)^−1
- PARTICULARS: molar absorption coefficient at 365 nm, compound β alone

// recorded ε365 of Compound β for Cc1cc(C)c2c(C)cc(C)nc2c1 [2,4,5,7-Tetramethylquinoline] : <10

// recorded ε365 of Compound β for Clc1ccccn1 [Example 2-Chloropyridine, 2-Chloropyridine] : <10

// recorded ε365 of Compound β for Cc1cc(C)c2ccccc2n1 [Example B12, 2,4-dimethylquinoline] : <10

// recorded ε365 of Compound β for c1ccc2nc3ccccc3cc2c1 [Example B3, acridine] : 4900

// recorded ε365 of Compound β for Nc1ccncc1 [Example 4-Aminopyridine, 4-Aminopyridine] : <100

// recorded ε365 of Compound β for CCCCc1ncc(C)c2ccccc12 [Example 1-n-Butyl-4-methylisoquinoline, 1-n-Butyl-4-methylisoquinoline] : <10

// recorded ε365 of Compound β for c1ccc2cnccc2c1 [Example B1, isoquinoline] : <10

// recorded ε365 of Compound β for c1ccc2ncccc2c1 [Example B2, quinoline] : <10

====

- PROTOCOL DETAILS: Measurement of ε365 and ε365/ε313 of compound β (molar absorption coefficients in acetonitrile)
- Format: physicochemical
- Set-up: key: molar absorption coefficient at 365 nm in (cm·mol/L)^−1
- PARTICULARS: molar absorption coefficient at 365 nm in acetonitrile
ε365 of Compound β for assorted compounds

Worked examples follow.
Cc1cc(C)c2ccccc2n1: <10 (cm·mol/L)^−1
c1ccc2ncccc2c1: <10 (cm·mol/L)^−1
CCCCc1ncc(C)c2ccccc12: <10 (cm·mol/L)^−1
Nc1ccncc1: <100 (cm·mol/L)^−1
Clc1ccccn1: <10 (cm·mol/L)^−1

Continue with the next compound.
// recorded ε365 of Compound β for Cc1cc(C)c2c(C)cc(C)nc2c1 : <10 (cm·mol/L)^−1

====

- PROTOCOL DETAILS: Measurement of pKa of compound β in ground state (acid titration, 0.1 N HCl, methanol/water)
- PARTICULARS: compound β; pKa of the conjugate acid for nitrogen-containing aromatic compounds
ENDPOINT LABEL: pKa in ground state

c1ccc2ncccc2c1: 4.15
c1ccc2nc3ccccc3cc2c1: 4.67
Cc1nccc2ccccc12: 5.31
c1ccc2cnccc2c1: 4.69

====

- PROTOCOL DETAILS: Measurement of pKa of compound β in ground state (acid titration, 0.1 N HCl, methanol/water)
- PARTICULARS: methanol/water mixture, pKa of Compound β in ground state, compound β alone
ENDPOINT LABEL: pKa

Cc1cc(C)c2c(C)cc(C)nc2c1: 6.23
Cc1c2ccccc2nc2ccccc12: 5.4
c1ccc2nc3ccccc3cc2c1: 4.67
Nc1ccncc1: 9.2
COc1cc(C)nc2ccccc12: 6.51
c1ccc(-c2c3ccccc3nc3ccccc23)cc1: 4.04
c1ccc2ncccc2c1: 4.15
c1ccc2cnccc2c1: 4.69
CCCCc1ncc(C)c2ccccc12: 5.9
Cc1cc(C)c2ccccc2n1: 5.67
CCCCc1nccc2ccccc12: 5.27

====

- PROTOCOL DETAILS: Measurement of pKa of compound β in ground state (acid titration, 0.1 N HCl, methanol/water)
- PARTICULARS: methanol/water mixture, pKa of Compound β in ground state, compound β, ground state
ENDPOINT LABEL: pKa

c1ccc(-c2c3ccccc3nc3ccccc23)cc1: 4.04
c1ccc2ncccc2c1: 4.15
c1ccc2cnccc2c1: 4.69

====

- PROTOCOL DETAILS: Measurement of ε365 and ε365/ε313 of compound β (molar absorption coefficients in acetonitrile)
- Type: physicochemical
- Design: key: molar absorption coefficient at 365 nm in (cm·mol/L)^−1
- PARTICULARS: molar absorption coefficient at 365 nm
ENDPOINT LABEL: ε365 of Compound β

Worked examples follow.
Cc1cc(C)c2ccccc2n1: <10
c1ccc2cnccc2c1: <10
Cc1c2ccccc2nc2ccccc12: 6300
c1ccncc1: <10
Cc1cc(C)c2c(C)cc(C)nc2c1: <10

Continue with the next compound.
// recorded ε365 of Compound β for CCCCc1ncc(C)c2ccccc12 : <10

====

- PROTOCOL DETAILS: Measurement of pKa of compound β in ground state (acid titration, 0.1 N HCl, methanol/water)
- PARTICULARS: methanol/water mixture, pKa of Compound β in ground state
ENDPOINT LABEL: pKa

Cc1c2ccccc2nc2ccccc12: 5.4
c1ccc(-c2c3ccccc3nc3ccccc23)cc1: 4.04
CCCCc1nccc2ccccc12: 5.27
c1ccc2ncccc2c1: 4.15
Cc1cc(C)c2c(C)cc(C)nc2c1: 6.23
Cc1cc(C)c2ccccc2n1: 5.67

====

- PROTOCOL DETAILS: Measurement of ε365 and ε365/ε313 of compound β (molar absorption coefficients in acetonitrile)
- Type: physicochemical
- Parameters: key: molar absorption coefficient at 365 nm in (cm·mol/L)^−1
- Text: (Measurement and Evaluation of ε365 and ε365/ε313) A molar absorption coefficient ((cm·mol/L)^−1, “ε365”) of the compound β at 365 nm and a molar absorption coefficient ((cm·mol/L)^−1, “ε313”) of the compound β at 313 nm were obtained, and a value (ε365/ε313) obtained by divided ε365 by ε313 was obtained. The ε365 and ε313 of the compound β are molar absorption coefficients measured by dissolving the compound β in acetonitrile. […]
ε365 of Compound β for assorted compounds

Worked examples follow.
Cc1c2ccccc2nc2ccccc12: 6300
Cc1cc(C)c2c(C)cc(C)nc2c1: <10
Clc1ccccn1: <10

Continue with the next compound.
// recorded ε365 of Compound β for Cc1nccc2ccccc12 : <10

====

- PROTOCOL DETAILS: Measurement of ε365 and ε365/ε313 of compound β (molar absorption coefficients in acetonitrile)
- Assay type: physicochemical
- Design: key: molar absorption coefficient at 365 nm in (cm·mol/L)^−1
ε365 of Compound β for assorted compounds

Nc1ccncc1: <100

// recorded ε365 of Compound β for c1ccc2nc3ccccc3cc2c1 : 4900

====

- PROTOCOL DETAILS: Measurement of pKa of compound β in ground state (acid titration, 0.1 N HCl, methanol/water)
- PARTICULARS: methanol/water mixture, pKa of Compound β in ground state, ground state
ENDPOINT LABEL: pKa

a. COc1cc(C)nc2ccccc12
b. c1ccc(-c2c3ccccc3nc3ccccc23)cc1
# return whichever of a and b has the smaller pKa Field: selected label. Fill in the label of the entry you choose.
b
(b: 4.04, a: 6.51)

====

ε365 of Compound β for assorted compounds
- PROTOCOL DETAILS: Measurement of ε365 and ε365/ε313 of compound β (molar absorption coefficients in acetonitrile)
- Assay type: physicochemical
- Set-up: key: molar absorption coefficient at 365 nm in (cm·mol/L)^−1
- PARTICULARS: molar absorption coefficient at 365 nm, in acetonitrile

c1ccc2cnccc2c1: <10 (cm·mol/L)^−1

// recorded ε365 of Compound β for CCCCc1ncc(C)c2ccccc12 : <10 (cm·mol/L)^−1

// recorded ε365 of Compound β for CCCCc1nccc2ccccc12 : <10 (cm·mol/L)^−1

// recorded ε365 of Compound β for c1ccncc1 : <10 (cm·mol/L)^−1

// recorded ε365 of Compound β for Cc1c2ccccc2nc2ccccc12 : 6300 (cm·mol/L)^−1
